Provide the recorded Perturb-seq pooled growth sgRNA counts, d5 for the entries that follow.
System: K562 CRISPRi cells
Test: Perturb-seq pooled growth measurement (sgRNA counts, growth phenotype γ, relative activity)
Assay type: cell-based, human
Conditions: sequencing read counts; 5 days of growth (day seven after transduction)
Source text: Finally, we sought to use intermediate-activity sgRNAs to explore relationships between expression levels of various genes and the resulting cellular phenotypes. […] In addition to the single-cell transcriptomes, we measured bulk growth phenotypes conferred by sgRNAs in these cells. […]
Answers are plain numbers.

{"SUBSTANCE": "ALDOA_+_30077139.23-P1P2_13: sgRNA targeting ALDOA, GGTCACCAGGACCCCTTTTG, SEQ ID NO: 160 (listed as DNA, chemistry not fully specified)", "DATA VALUE": 16944}
{"SUBSTANCE": "RAN_+_131356438.23-P1P2_04: sgRNA targeting RAN, GGCGGTCGCGGCGCTTAGGG, SEQ ID NO: 72 (listed as DNA, chemistry not fully specified)", "DATA VALUE": 11409}
{"SUBSTANCE": "RPS14_+_149829238.23-P1P2_13: sgRNA targeting RPS14, GAGGCCCGGGCGCGACAGTC, SEQ ID NO: 49 (listed as DNA, chemistry not fully specified)", "DATA VALUE": 9567}
{"SUBSTANCE": "SEC61A1_−_127771295.23-P1_00: sgRNA targeting SEC61A1, GGCACTGACGTGTCTCTCGG, SEQ ID NO: 83 (listed as DNA, chemistry not fully specified)", "DATA VALUE": 2151}

**Q:** Return Perturb-seq pooled growth sgRNA counts, d5 (reported value) for this substance: TUBB_+_30688126.23-P1_06: sgRNA targeting TUBB, GCGGCAGGACGGTTCTGAGA, SEQ ID NO: 107 (listed as DNA, chemistry not fully specified)
**A:** 1983

* * *

Test system: K562 CRISPRi cells
Test: Perturb-seq pooled growth measurement (sgRNA counts, growth phenotype γ, relative activity)
Type: cell-based, human
Conditions: γ relative to perfectly matched sgRNA (_00) of the same gene, day 10
Provide the recorded relative_activity_day10 for the entries that follow.
One number for each entry.

{"SUBSTANCE": "DUT_ + _48624411.23-P1P2_01 (guide GCCAGCGAGGAGACCACCGG; listed as DNA, chemistry not fully specified)", "relative_activity_day10": 0.9341}

I have 2 substances here; please give me relative_activity_day10 for each one.
1. EIF2S1_ −_67827080.23-P1P2_07 (guide GAGCGAAGCGCTCGCTGAGG; listed as DNA, chemistry not fully specified)
2. RPS14_ + _149829238.23-P1P2_00 (guide GAGGCCCGGGCGCGACAATC; listed as DNA, chemistry not fully specified)

**A:**
[0.07767, 1]
